Sourced from ChEMBL document CHEMBL1128875

tgt: UniProt:P02550
Sequence (P02550 whole entry, looked up): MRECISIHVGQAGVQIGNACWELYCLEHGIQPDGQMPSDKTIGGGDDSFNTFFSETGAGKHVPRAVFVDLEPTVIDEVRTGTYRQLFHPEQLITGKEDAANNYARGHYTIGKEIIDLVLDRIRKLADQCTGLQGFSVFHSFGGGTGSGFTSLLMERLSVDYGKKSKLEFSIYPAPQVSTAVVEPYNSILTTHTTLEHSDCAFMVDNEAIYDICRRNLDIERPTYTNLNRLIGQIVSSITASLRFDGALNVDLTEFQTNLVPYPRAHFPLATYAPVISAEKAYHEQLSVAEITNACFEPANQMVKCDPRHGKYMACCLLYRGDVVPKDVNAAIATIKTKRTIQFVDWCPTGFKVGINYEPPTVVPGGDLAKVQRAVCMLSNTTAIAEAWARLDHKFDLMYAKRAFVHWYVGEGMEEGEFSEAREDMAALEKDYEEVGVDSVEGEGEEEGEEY
procedure text: Tested for 50% inhibition of the rate of microtubule disassembly to that paclitaxel
Assay type: functional
# key: entry, value: IC50 ratio
result type: IC50 ratio

>  <smiles input>
CC(=O)O[C@@]12CO[C@@H]1C[C@H](O)[C@@]1(C)C(=O)[C@H](O)C3=C(C)[C@@H](OC(=O)[C@H](O)[C@@H](NC(=O)OC(C)(C)C)c4ccc(C=O)cc4)C[C@@](O)([C@@H](OC(=O)c4ccccc4)[C@H]21)C3(C)C

>  <tgt>
UniProt:P02550

>  <result type>
IC50 ratio

>  <numeric readout>
0.75

$$$$
>  <smiles input>
C#Cc1ccc([C@H](NC(=O)OC(C)(C)C)[C@@H](O)C(=O)O[C@H]2C[C@@]3(O)[C@@H](OC(=O)c4ccccc4)[C@@H]4[C@]5(OC(C)=O)CO[C@@H]5C[C@H](O)[C@@]4(C)C(=O)[C@H](O)C(=C2C)C3(C)C)cc1

>  <tgt>
UniProt:P02550

>  <result type>
IC50 ratio

>  <numeric readout>
0.6

$$$$
>  <smiles input>
CC(=O)O[C@@]12CO[C@@H]1C[C@H](O)[C@@]1(C)C(=O)[C@H](O)C3=C(C)[C@@H](OC(=O)[C@H](O)[C@@H](NC(=O)OC(C)(C)C)c4ccccc4)C[C@@](O)([C@@H](OC(=O)c4ccccc4)[C@H]21)C3(C)C.O.O.O

>  <tgt>
UniProt:P02550

>  <result type>
IC50 ratio

>  <numeric readout>
0.64

$$$$
>  <smiles input>
CC(=O)O[C@@]12CO[C@@H]1C[C@H](O)[C@@]1(C)C(=O)[C@H](O)C3=C(C)[C@@H](OC(=O)[C@H](O)[C@@H](NC(=O)OC(C)(C)C)c4ccc(C(C)=O)cc4)C[C@@](O)([C@@H](OC(=O)c4ccccc4)[C@H]21)C3(C)C

>  <tgt>
UniProt:P02550

>  <result type>
IC50 ratio

>  <numeric readout>
0.95

$$$$
>  <smiles input>
C=C(C)c1ccc([C@H](NC(=O)OC(C)(C)C)[C@@H](O)C(=O)O[C@H]2C[C@@]3(O)[C@@H](OC(=O)c4ccccc4)[C@@H]4[C@]5(OC(C)=O)CO[C@@H]5C[C@H](O)[C@@]4(C)C(=O)[C@H](O)C(=C2C)C3(C)C)cc1

>  <tgt>
UniProt:P02550

>  <result type>
IC50 ratio

>  <numeric readout>
1.8

$$$$
>  <smiles input>
CC(=O)O[C@@]12CO[C@@H]1C[C@H](O)[C@@]1(C)C(=O)[C@H](O)C3=C(C)[C@@H](OC(=O)[C@H](O)[C@@H](NC(=O)OC(C)(C)C)c4ccc(C)cc4)C[C@@](O)([C@@H](OC(=O)c4ccccc4)[C@H]21)C3(C)C

>  <tgt>
UniProt:P02550

>  <result type>
IC50 ratio

>  <numeric readout>
1.3

$$$$

---

# key: entry, value: IC50 ratio
tgt: UniProt:P02550
procedure text: Tested for 50% inhibition of the rate of microtubule disassembly to that paclitaxel
Format: functional
result type: IC50 ratio

>  <smiles input>
CC(=O)O[C@@]12CO[C@@H]1C[C@H](O)[C@@]1(C)C(=O)[C@H](O)C3=C(C)[C@@H](OC(=O)[C@H](O)[C@@H](NC(=O)OC(C)(C)C)c4ccc(-c5ccccc5)cc4)C[C@@](O)([C@@H](OC(=O)c4ccccc4)[C@H]21)C3(C)C

>  <numeric readout>
2

$$$$
>  <smiles input>
CC(=O)O[C@@]12CO[C@@H]1C[C@H](O)[C@@]1(C)C(=O)[C@H](O)C3=C(C)[C@@H](OC(=O)[C@H](O)[C@@H](NC(=O)OC(C)(C)C)c4ccc(CO)cc4)C[C@@](O)([C@@H](OC(=O)c4ccccc4)[C@H]21)C3(C)C

>  <numeric readout>
0.4

$$$$
>  <smiles input>
CC(=O)O[C@@]12CO[C@@H]1C[C@H](O)[C@@]1(C)C(=O)[C@H](O)C3=C(C)[C@@H](OC(=O)[C@H](O)[C@@H](NC(=O)OC(C)(C)C)c4ccc(C(=O)c5ccccc5)cc4)C[C@@](O)([C@@H](OC(=O)c4ccccc4)[C@H]21)C3(C)C

>  <numeric readout>
20

$$$$
>  <smiles input>
C=Cc1ccc([C@H](NC(=O)OC(C)(C)C)[C@@H](O)C(=O)O[C@H]2C[C@@]3(O)[C@@H](OC(=O)c4ccccc4)[C@@H]4[C@]5(OC(C)=O)CO[C@@H]5C[C@H](O)[C@@]4(C)C(=O)[C@H](O)C(=C2C)C3(C)C)cc1

>  <numeric readout>
0.7

$$$$
